# Tested On: Atrial natriuretic peptide receptor 1 (Homo sapiens)
# Assay Overview: Natriuretic polypeptide receptor (hNpr1) antagonism - Confirmation; further: nearly all actives have a fitted effect of over 70% in size
# Run Parameters: HEK293 hNpr1 cGMP GloSensor luminescence, ANP-stimulated; series mostly up to 57.6 µM
The campaign covered roughly 1,400 compounds. About 1,100 (79%) were called active. Another 20% or so got no clear call; they are omitted. The call rests on the fitted dose curve. The set was probably picked from earlier hits. These entries were drawn from the full list.
Mark one answer only. Choices: active, inactive

O=C(NCc1nnc2cc(-c3nc(C4CC4)no3)ccn12)c1ccc(F)cc1Cl; active

Ask: Entry CC1=NS(=O)(=O)N(C)C=C1C(=O)OCc1nc(-c2ccc(C)cc2)no1 : call = ?
Result: active

Ask: Entry O=C(NCC1CC1)c1nc2c(o1)CCN(Cc1cccc(F)c1F)CC2 : call = ?
Result: active

Ask: Entry O=C1NCN(Cc2ccc(Cl)cc2)C12CCN(Cc1ccccc1)CC2 : call = ?
Result: active
